Hello, the source for this data is patent US20080280974A1, in case you need it.

Tested on: IL-8 secreted by human pulmonary artery endothelial cells (HPAEC)
Experiment description: In vitro IL-8 assay: TNF-alpha-stimulated IL-8 secretion by HPAEC, ELISA
Type: cell-based
Condition info: Endothelial cell, 10 microM compound, 20 hrs preincubation, then 2 ng/ml TNF-alpha for 4 hrs
Measured parameter: inhibition at 10 µM (%)
A number alone suffices; assume %.

Past entries and their recorded results:
>>> value_reported("Cc1cc2c(cc1O)C(C)(C)CC1(CC(C)(C)c3cc(OCCCC(=O)O)c(C)cc3O1)O2 (racemic)")
0
>>> value_reported("Cc1cc2c(cc1O)C(C)(C)CC1(CC(C)(C)c3cc(OCCCn4ccnc4)c(C)cc3O1)O2 (racemic)")
5
>>> value_reported("Cc1cc2c(cc1OCC(=O)O)C(C)(C)CC1(CC(C)(C)c3cc(OCC(=O)O)c(C)cc3O1)O2 (racemic)")
19

# next compound below
inhibition at 10 µM for Cc1cc2c(cc1O)C(C)(C)CC1(CC(C)(C)c3cc(OCCO)c(C)cc3O1)O2 (racemic) is 0
